Hi! I'm sharing some pIC50 results obtained with SIK3 (Homo sapiens).
Sequence (Q9Y2K2 whole entry): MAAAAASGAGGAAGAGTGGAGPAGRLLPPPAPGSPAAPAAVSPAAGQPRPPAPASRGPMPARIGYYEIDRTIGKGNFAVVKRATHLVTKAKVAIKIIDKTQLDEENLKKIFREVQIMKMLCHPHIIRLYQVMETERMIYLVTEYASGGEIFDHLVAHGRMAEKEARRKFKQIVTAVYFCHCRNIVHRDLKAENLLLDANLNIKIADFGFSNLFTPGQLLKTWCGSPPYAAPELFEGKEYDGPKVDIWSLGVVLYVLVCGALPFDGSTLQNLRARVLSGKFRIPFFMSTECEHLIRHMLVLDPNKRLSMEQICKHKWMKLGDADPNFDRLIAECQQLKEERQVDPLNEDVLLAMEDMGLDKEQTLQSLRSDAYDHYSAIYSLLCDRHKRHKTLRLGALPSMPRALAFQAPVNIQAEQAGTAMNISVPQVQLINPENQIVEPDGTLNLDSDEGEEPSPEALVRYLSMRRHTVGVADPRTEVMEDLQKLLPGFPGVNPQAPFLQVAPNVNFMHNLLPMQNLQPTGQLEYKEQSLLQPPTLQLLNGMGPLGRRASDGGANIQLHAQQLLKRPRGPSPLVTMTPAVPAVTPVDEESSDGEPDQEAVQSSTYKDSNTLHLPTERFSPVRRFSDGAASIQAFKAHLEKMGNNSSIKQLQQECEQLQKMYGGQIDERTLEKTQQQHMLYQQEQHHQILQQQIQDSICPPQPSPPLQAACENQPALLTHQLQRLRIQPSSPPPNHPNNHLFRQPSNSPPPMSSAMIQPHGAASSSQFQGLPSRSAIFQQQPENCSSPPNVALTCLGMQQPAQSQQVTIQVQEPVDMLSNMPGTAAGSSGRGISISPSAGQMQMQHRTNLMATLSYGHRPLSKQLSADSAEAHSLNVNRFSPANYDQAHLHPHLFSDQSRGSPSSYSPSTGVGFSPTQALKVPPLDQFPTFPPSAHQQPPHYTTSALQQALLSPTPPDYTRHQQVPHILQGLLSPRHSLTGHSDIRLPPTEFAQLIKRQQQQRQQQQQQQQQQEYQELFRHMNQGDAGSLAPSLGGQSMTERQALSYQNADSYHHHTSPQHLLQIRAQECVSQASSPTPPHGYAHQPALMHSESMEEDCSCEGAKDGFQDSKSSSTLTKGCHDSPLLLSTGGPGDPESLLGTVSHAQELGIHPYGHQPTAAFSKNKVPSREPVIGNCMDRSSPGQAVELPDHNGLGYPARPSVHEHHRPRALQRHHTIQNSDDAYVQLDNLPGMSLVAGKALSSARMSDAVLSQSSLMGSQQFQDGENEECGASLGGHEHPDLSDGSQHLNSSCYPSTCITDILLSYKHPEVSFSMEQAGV
pIC50: −log10 of the molar value.
Measure: pIC50

# Molecule, Value observed
measured = [
    ("COc1cc(-c2cnc3cc(OCCN(C)C)ccn23)cc2c1C(=O)N(CC#N)CC2 [compound 67]", "8.00 to 11.00"),
    ("COc1cc(-c2cnc3cc(OCC4CCCCN4CC#N)ccn23)cc(OC(F)F)c1C(=O)NC1CC1 (stereo not shown) [compound 269]", "8.00 to 11.00"),
    ("COc1cc(-c2cnc3cc(OC[C@H]4CNCC[C@@H]4O)ccn23)cc(OC(F)F)c1C(=O)NC1CC1 (racemic) [Cpd 373]", "8.00 to 11.00"),
    ("COc1cc(-c2cnc3cc(OCC(O)CN4CCOCC4)ccn23)cc(OC(F)F)c1C(=O)NC1CC1 (single isomer, unassigned) [Cpd 386]", "8.00 to 11.00"),
    ("COc1cc(-c2cnc3cc(OCCN4CCCC(F)C4)ccn23)cc(OC(F)F)c1C(=O)NC1CC1 (stereo not shown) [compound 212]", "8.00 to 11.00"),
    ("COc1cc(-c2cnc3cc(OC(C)(C)C#N)ccn23)cc(OC(F)F)c1C(=O)NC1CC1 [Cpd 263]", "7.00 to 8.00"),
    ("COc1cc(-c2cnc3cc(OC4CCOCC4)ccn23)cc(OC)c1C(=O)NCC(F)(F)F [Cpd 4]", "7.00 to 8.00"),
]

###

Observed IC50 values for SIK2 (Homo sapiens) are listed in what follows.

# Compound, IC50
measured = [
    ("COc1cc(-c2cnc3cc(OCCC4CCCN4C)ccn23)cc(OC(F)F)c1C(=O)NC1CC1 (stereo not shown)", "0.01 to 10 nM"),
    ("COc1cc(-c2cnc3cc(OCCN4CCCC4)ccn23)cc2c1C(=O)N(CC(F)(F)F)CC2", "0.01 to 10 nM"),
    ("COc1cc(-c2cnc3cc(OCC4(O)CCN(C(C)C)C4)ccn23)cc(OC(F)F)c1C(=O)NC1CC1 (stereo not shown)", "0.01 to 10 nM"),
    ("CN(C)CCOc1ccn2c(-c3cc(F)c(C(=O)NC4CC4)c(OC(F)F)c3)cnc2c1", "10 to 100 nM"),
]

###

Reported values: pIC50 for SIK2 (Homo sapiens, UniProt Q9H0K1), one per item.
pIC50: −log10 of the molar value.

# Compound, pIC50
rows = [
    ("Cc1cc(-c2cnc3cc(OCCN4CCOCC4)ccn23)cc(OC(F)F)c1C(=O)NCC(F)(F)F", "7.00 to 8.00"),
    ("COc1cc(-c2cnc3cc(OCC4COCCN4C(C)C)ccn23)cc(OC(F)F)c1C(=O)NC1CC1 (centres unmarked)", "7.00 to 8.00"),
    ("COc1cc(-c2cnc3cc(OC[C@H]4CCN(C5COC5)C4)ccn23)cc(OC(F)F)c1C(=O)NC1CC1", "8.00 to 11.00"),
    ("COc1cc(-c2cnc3cc(OCCN4CCOC[C@H]4C)ccn23)cc(OC(F)F)c1C(=O)NC1CC1", "8.00 to 11.00"),
    ("CNC(C)(C)COc1ccn2c(-c3cc(OC)c(C(=O)NC4CC4)c(OC(F)F)c3)cnc2c1", "8.00 to 11.00"),
    ("COc1cc(-c2cnc3cc(OC4COC4)ccn23)cc(OC(F)F)c1C(=O)NC1CC1", "7.00 to 8.00"),
    ("COc1cc(-c2cnc3cc(OCC4CCCCN4)ccn23)cc(OC(F)F)c1C(=O)NC1CC1 (centres unmarked)", "8.00 to 11.00"),
    ("COc1cc(-c2cnc3cc(OCCCOC(C)=O)ccn23)cc(OC(F)F)c1C(=O)NC1CC1", "8.00 to 11.00"),
]

###

# System name: SIK2 (Homo sapiens)
# Sequence (Q9H0K1 whole entry): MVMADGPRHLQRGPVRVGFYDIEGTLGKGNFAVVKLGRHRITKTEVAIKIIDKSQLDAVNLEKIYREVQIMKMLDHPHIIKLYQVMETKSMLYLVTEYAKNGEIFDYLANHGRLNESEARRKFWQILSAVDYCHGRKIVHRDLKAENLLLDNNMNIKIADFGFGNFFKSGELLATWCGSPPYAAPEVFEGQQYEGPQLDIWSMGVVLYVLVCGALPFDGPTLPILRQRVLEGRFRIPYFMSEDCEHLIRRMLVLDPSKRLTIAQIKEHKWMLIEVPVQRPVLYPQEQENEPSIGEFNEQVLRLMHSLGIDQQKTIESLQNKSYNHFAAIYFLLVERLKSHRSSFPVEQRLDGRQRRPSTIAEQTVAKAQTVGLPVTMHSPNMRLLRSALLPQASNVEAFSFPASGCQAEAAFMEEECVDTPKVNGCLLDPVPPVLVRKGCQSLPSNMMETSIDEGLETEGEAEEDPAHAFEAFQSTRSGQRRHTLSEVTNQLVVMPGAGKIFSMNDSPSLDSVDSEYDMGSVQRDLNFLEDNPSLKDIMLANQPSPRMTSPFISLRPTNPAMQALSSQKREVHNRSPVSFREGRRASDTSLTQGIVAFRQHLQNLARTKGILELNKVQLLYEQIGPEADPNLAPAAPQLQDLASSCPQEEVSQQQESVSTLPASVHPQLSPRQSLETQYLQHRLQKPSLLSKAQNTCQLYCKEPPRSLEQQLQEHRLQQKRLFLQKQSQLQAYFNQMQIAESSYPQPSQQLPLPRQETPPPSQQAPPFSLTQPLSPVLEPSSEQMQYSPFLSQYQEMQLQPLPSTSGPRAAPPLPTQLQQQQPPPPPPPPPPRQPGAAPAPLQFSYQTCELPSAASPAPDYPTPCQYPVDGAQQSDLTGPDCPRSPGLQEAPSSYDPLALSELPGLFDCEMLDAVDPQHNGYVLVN
pIC50: −log10 of the molar value.
Measure: pIC50

# Compound, System name, Measure, Value observed
rows = [
    ("COc1cc(-c2cnc3cc(OCCCN4CCOCC45CCC5)ccn23)cc(OC(F)F)c1C(=O)NC1CC1", "SIK2 (Homo sapiens)", "pIC50", "8.00 to 11.00"),
    ("COc1cc(-c2cnc3cc(OCCc4cnn(C)c4)ccn23)cc(OC(F)F)c1C(=O)NC1CC1", "SIK2 (Homo sapiens)", "pIC50", "8.00 to 11.00"),
    ("COC(=O)N1CCCCC1COc1ccn2c(-c3cc(OC)c(C(=O)NC4CC4)c(OC(F)F)c3)cnc2c1 (stereo not shown)", "SIK2 (Homo sapiens)", "pIC50", "8.00 to 11.00"),
    ("COc1cc(-c2cnc3cc(OCCCN4CCC(F)(C(N)=O)CC4)ccn23)cc(OC(F)F)c1C(=O)NC1CC1", "SIK2 (Homo sapiens)", "pIC50", "8.00 to 11.00"),
    ("COc1cc(-c2cnc3cc(OCc4cccnc4)ccn23)cc(OC(F)F)c1C(=O)NC1CC1", "SIK2 (Homo sapiens)", "pIC50", "8.00 to 11.00"),
    ("CCOC(=O)CN1[C@@H]2CC[C@H]1CC(Oc1ccn3c(-c4cc(OC)c(C(=O)NC5CC5)c(OC(F)F)c4)cnc3c1)C2 (stereo partly shown)", "SIK2 (Homo sapiens)", "pIC50", "7.00 to 8.00"),
    ("COc1cc(-c2cnc3cc(OCCN4CCN(CCO)CC4)ccn23)cc(OC(F)F)c1C(=O)NC1CC1", "SIK2 (Homo sapiens)", "pIC50", "8.00 to 11.00"),
    ("COCCN(CCOc1ccn2c(-c3cc(OC)c(C(=O)NC4CC4)c(OC(F)F)c3)cnc2c1)CC(F)F", "SIK2 (Homo sapiens)", "pIC50", "8.00 to 11.00"),
    ("COc1cc(-c2cnc3cc(OCc4cncn4C)ccn23)cc(OC(F)F)c1C(=O)NC1CC1", "SIK2 (Homo sapiens)", "pIC50", "8.00 to 11.00"),
    ("COc1cc(-c2cnc3cc(OCC(C)(C)C#N)ccn23)cc(OC(F)F)c1C(=O)NC1CC1", "SIK2 (Homo sapiens)", "pIC50", "8.00 to 11.00"),
    ("COc1cc(-c2cnc3cc(OC[C@H]4CCCN(C5COC5)C4)ccn23)cc(OC(F)F)c1C(=O)NC1CC1", "SIK2 (Homo sapiens)", "pIC50", "8.00 to 11.00"),
    ("COc1cc(-c2cnc3cc(OCCN4CCOC[C@H]4C)ccn23)cc2c1C(=O)N(CC(F)(F)F)CC2", "SIK2 (Homo sapiens)", "pIC50", "7.00 to 8.00"),
    ("COc1cc(-c2cnc3cc(OCCCN4CC(O)(C(F)(F)F)C4)ccn23)cc(OC(F)F)c1C(=O)NC1CC1", "SIK2 (Homo sapiens)", "pIC50", "8.00 to 11.00"),
    ("COc1cc(-c2cnc3cc(OC4C[C@H]5CC[C@@H](C4)N5CCC#N)ccn23)cc(OC(F)F)c1C(=O)NC1CC1 (stereo partly shown)", "SIK2 (Homo sapiens)", "pIC50", "7.00 to 8.00"),
    ("Cc1cc(-c2cnc3cc(OCCN4CCOCC4)ccn23)cc(OC(F)F)c1C(=O)NC1CC1", "SIK2 (Homo sapiens)", "pIC50", "7.00 to 8.00"),
    ("COc1cc(-c2cnc3cc(OCC(N)C4CCCO4)ccn23)cc(OC(F)F)c1C(=O)NC1CC1 (stereo not shown)", "SIK2 (Homo sapiens)", "pIC50", "8.00 to 11.00"),
    ("COc1cc(-c2cnc3cc(OCCN4CC[C@H](F)C4)ccn23)cc(OC(F)F)c1C(=O)NC1CC1", "SIK2 (Homo sapiens)", "pIC50", "8.00 to 11.00"),
    ("COc1cc(-c2cnc3cc(OCc4nncn4C)ccn23)cc(OC(F)F)c1C(=O)NC1CC1", "SIK2 (Homo sapiens)", "pIC50", "8.00 to 11.00"),
    ("CCN(CC)CCOc1ccn2c(-c3cc(OC)c(C(=O)NC4CC4)c(OC(F)F)c3)cnc2c1", "SIK2 (Homo sapiens)", "pIC50", "8.00 to 11.00"),
    ("COc1cc(-c2cnc3cc(OCCN(C)CC#N)ccn23)cc(OC(F)F)c1C(=O)NC1CC1", "SIK2 (Homo sapiens)", "pIC50", "8.00 to 11.00"),
    ("COc1cc(-c2cnc3cc(OCCCN4CCc5c(ncn5C)C4)ccn23)cc(OC(F)F)c1C(=O)NC1CC1", "SIK2 (Homo sapiens)", "pIC50", "8.00 to 11.00"),
    ("COc1cc(-c2cnc3cc(OCC4(F)CN(C)C4)ccn23)cc2c1C(=O)N(CC(F)(F)F)CC2", "SIK2 (Homo sapiens)", "pIC50", "8.00 to 11.00"),
    ("COc1cc(-c2cnc3cc(OC(C)(C)C#N)ccn23)cc(OC(F)F)c1C(=O)NC1CC1", "SIK2 (Homo sapiens)", "pIC50", "< 6.30"),
    ("COc1cc(-c2cnc3cc(OCC(C)(C)N(C)C)ccn23)cc(OC(F)F)c1C(=O)NC1CC1", "SIK2 (Homo sapiens)", "pIC50", "7.00 to 8.00"),
    ("COc1cc(-c2cnc3cc(OC[C@H]4CN(C)CCO4)ccn23)cc2c1C(=O)N(CC(F)(F)F)CC2", "SIK2 (Homo sapiens)", "pIC50", "8.00 to 11.00"),
    ("COc1cc(-c2cnc3cc(OCC4CCCN4C(C)C)ccn23)cc(OC(F)F)c1C(=O)NC1CC1 (stereo not shown)", "SIK2 (Homo sapiens)", "pIC50", "8.00 to 11.00"),
    ("CCOCCOc1ccn2c(-c3cc(OC)c(C(=O)NC4CC4)c(OC(F)F)c3)cnc2c1", "SIK2 (Homo sapiens)", "pIC50", "8.00 to 11.00"),
    ("COc1cc(-c2cnc3cc(OC[C@H]4COCCO4)ccn23)cc2c1C(=O)N(CC(F)F)CC2", "SIK2 (Homo sapiens)", "pIC50", "8.00 to 11.00"),
]

Where do the numbers come from? From patent US12264156B2.
